- experimental-system: MRP4 (Homo sapiens)
- Sequence (O15439 1-1325): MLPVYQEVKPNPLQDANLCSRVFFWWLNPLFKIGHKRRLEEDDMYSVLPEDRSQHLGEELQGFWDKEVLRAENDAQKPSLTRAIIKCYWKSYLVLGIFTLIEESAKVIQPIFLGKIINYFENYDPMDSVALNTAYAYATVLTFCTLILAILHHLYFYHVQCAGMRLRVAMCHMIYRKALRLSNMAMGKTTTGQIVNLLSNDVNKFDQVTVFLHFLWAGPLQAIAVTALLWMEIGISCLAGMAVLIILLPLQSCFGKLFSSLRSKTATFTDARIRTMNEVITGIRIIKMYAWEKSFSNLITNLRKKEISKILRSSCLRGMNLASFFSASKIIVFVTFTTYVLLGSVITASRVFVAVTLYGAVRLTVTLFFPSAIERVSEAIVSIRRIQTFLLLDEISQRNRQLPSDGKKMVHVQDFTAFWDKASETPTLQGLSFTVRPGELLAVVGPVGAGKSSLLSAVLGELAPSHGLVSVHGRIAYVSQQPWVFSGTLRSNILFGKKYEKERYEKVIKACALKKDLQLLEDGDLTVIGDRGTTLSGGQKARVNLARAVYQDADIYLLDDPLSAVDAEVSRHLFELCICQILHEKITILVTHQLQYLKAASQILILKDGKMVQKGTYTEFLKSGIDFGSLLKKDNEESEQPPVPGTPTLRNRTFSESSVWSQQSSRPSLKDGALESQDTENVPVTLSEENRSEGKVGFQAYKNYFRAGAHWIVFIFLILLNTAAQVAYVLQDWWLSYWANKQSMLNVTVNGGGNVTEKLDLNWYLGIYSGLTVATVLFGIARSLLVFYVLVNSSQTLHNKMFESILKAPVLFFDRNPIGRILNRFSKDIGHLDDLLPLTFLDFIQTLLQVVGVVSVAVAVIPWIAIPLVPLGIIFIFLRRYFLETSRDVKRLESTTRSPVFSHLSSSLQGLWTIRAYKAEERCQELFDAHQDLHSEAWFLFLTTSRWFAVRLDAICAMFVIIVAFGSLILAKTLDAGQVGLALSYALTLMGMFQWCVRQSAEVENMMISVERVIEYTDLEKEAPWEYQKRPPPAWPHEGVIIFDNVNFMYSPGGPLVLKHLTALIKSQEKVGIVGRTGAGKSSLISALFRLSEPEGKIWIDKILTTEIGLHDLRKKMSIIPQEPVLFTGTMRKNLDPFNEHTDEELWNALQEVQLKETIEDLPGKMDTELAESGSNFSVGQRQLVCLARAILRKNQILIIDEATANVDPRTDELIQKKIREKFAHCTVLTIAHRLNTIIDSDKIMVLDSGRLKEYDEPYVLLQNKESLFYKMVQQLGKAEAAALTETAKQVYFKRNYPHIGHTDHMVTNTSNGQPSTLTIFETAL
- measurement-protocol: Membrane vesicle transport inhibition assay: MRP4-mediated [3H]-MTX uptake
- experimental-setup: human, pH 7
- Protocol: Human embryonic kidney (HEK293; purchased at American Type Culture Collection, Manassas, VA) cells were cultured in Dulbecco's modified Eagle's medium (Invitrogen life sciences, Breda, the Netherlands) containing 10% (v/v) fetal calf serum (MP Biomedicals, Uden, the Netherlands) at 37°C in a 5% (v/v) CO2 atmosphere. […]
observation-type: IC20 at 10 min

Prompt: Name the reported IC20 at 10 min value associated with the compound `O=C(O)Cc1ccccc1`
Response: 1600 µM

Values from paper PMC3070735
